These entries and their values trace back to ChEMBL document CHEMBL3885861.

- Organism: Rattus norvegicus
- procedure summary: Open TG-GATES - Regimen: Single
- Assay type: toxicity, organism-based, Sprague-Dawley
- Set-up: regimen Single, gender Male, age 6 weeks
- experimental parameters: in vivo, po, 0 mg/kg, 9 h, tissue Plasma, route gavage, dose level Control
reported metric: ALP (IU/L)
// return numeric value only (unit: IU/L, not printed)

Entry CC(S)C(=O)NCC(=O)O (stereo not given) [TIOPRONIN] , ALP reported as 1667.4

Record NS(=O)(=O)c1cc(C(=O)O)c(NCc2ccco2)cc1Cl [FUROSEMIDE] . Reported ALP: 1206

Entry CCCCNC(=O)NS(=O)(=O)c1ccc(C)cc1 [TOLBUTAMIDE] — recorded ALP = 1161.6

Note to self: ALP recorded for CN(CCOc1ccc(CC2SC(=O)NC2=O)cc1)c1ccccn1.O=C(O)/C=C\C(=O)O (stereo not given) [ROSIGLITAZONE MALEATE] was 1162.4

// COc1cc2ncnc(Nc3ccc(F)c(Cl)c3)c2cc1OCCCN1CCOCC1 [GEFITINIB] : ALP value = 1562.4

Reported ALP for COc1ccc([C@@H]2Sc3ccccc3N(CCN(C)C)C(=O)[C@@H]2OC(C)=O)cc1 [DILTIAZEM] was 1820.2

Item: CN(C/C=C/C#CC(C)(C)C)Cc1cccc2ccccc12 [TERBINAFINE] | ALP: 810.4

Form: compound = CC(=O)[C@@]1(O)CC[C@H]2[C@@H]3C=C(Cl)C4=CC(=O)CC[C@]4(C)[C@H]3CC[C@@]21C [CHLORMADINONE] ; ALP = 1276.4

GET /value?item= O=C(O)c1ccccc1Nc1ccccc1 [FENAMIC ACID] &field=ALP returns 1501.2

Data point: CN(C)CCCN1c2ccccc2Sc2ccc(Cl)cc21 [CHLORPROMAZINE] ; ALP = 922.2

Lab note: measured ALP of C=C[C@H]1C[N@@]2CC[C@H]1C[C@@H]2[C@@H](O)c1ccnc2ccc(OC)cc12 [QUINIDINE] was 1297.8

The measured ALP associated with CCO [ALCOHOL] reads 861

Item: "Nc1ccc(Cc2ccc(N)cc2)cc1" | ALP: 1332.6

ALP recorded for this compound, "CCN(CC)C(=S)SSC(=S)N(CC)CC" , is 1326.8

The compound O=c1ccc2ccccc2o1 [COUMARIN] showed ALP equal to 975.8

====

- Species on record: Rattus norvegicus
- procedure summary: Open TG-GATES - Regimen: Daily Repeat
- Assay type: toxicity, organism-based, Sprague-Dawley
- Parameters: regimen Daily Repeat, gender Male, age 6 weeks
- experimental parameters: in vivo, po, 1000 mg/kg, […], tissue Blood, route gavage, dose level High, time 14 day
reported metric: Eos
Could you give the number and then its unit, please?

The reported Eos of the compound "O=C(O)c1ccccc1Nc1ccccc1" was 0.3%

Per the record, "CC(=O)[C@@]1(O)CC[C@H]2[C@@H]3C=C(Cl)C4=CC(=O)CC[C@]4(C)[C@H]3CC[C@@]21C" has Eos of 1%

Eos for CC(S)C(=O)NCC(=O)O (centres undefined) is 0.8%

Eos recorded for this compound, CCCCNC(=O)NS(=O)(=O)c1ccc(C)cc1 [TOLBUTAMIDE] , is 0.8%
